Tested on: mice
assay-overview: Neuropharmacological Assay (SmartCube): automated behavioral signature of compound-treated mice compared with a database of reference drug classes
Assay type: in vivo
experimental-setup: SmartCube class probability, 3.0 mg/kg i.p., 15 min before test
Structures can show the parent of a compound that is named as a salt.
readout-name: PS

Illustrative cases are given below, each with its answer.
| compound | test-system | PS |
| --- | --- | --- |
| N#Cc1csc2c1CC(N)CC2 (single isomer, unassigned) [Compound 177, hydrochloride] | mice | ND (^ <4%) |
| CNC1CCc2sc(C)c(F)c2C1 (centres unmarked) [Compound 196, hydrochloride] | mice | ND (^ <4%) |
| CNC1(C)COc2ccsc2C1 (centres unmarked) [Compound 266, formate salt] | mice | ND (^ <4%) |
| Cc1cc2c(s1)CCC(N)C2 (centres unmarked) [Compound 185, hydrochloride] | mice | ND (^ <4%) |

Turning now to a further record.
Data request: Query: PS; subject: CNC1(C)CCc2csc(C(F)(F)F)c2C1 (centres unmarked) [Compound 141, hydrochloride]
Data returned: ND (^ <4%)

====

Tested on: mice
assay-overview: Neuropharmacological Assay (SmartCube): automated behavioral signature of compound-treated mice compared with a database of reference drug classes
Format: in vivo
experimental-setup: SmartCube class probability, 3.0 mg/kg i.p., 15 min before test
From the text: Neurosci. 2011 Sep. 9; 5: 103 (doi: 10.3389/fnins.2011.00103) (“Roberds”). […] To facilitate testing of multiple compounds for behavioral effects relevant to psychiatric disease, PsychoGenics, Inc. (Tarrytown, NY, “PGI”) developed SmartCube™ an automated system in which behaviors of compound-treated mice are captured by digital video and analyzed with computer algorithms. […]
Structures can show the parent of a compound that is named as a salt.
readout-name: PS

Illustrative cases are given below, each with its answer.
| compound | test-system | PS |
| --- | --- | --- |
| CNC1(C)COc2c(C)csc2C1.Cl (stereo not drawn) [Compound 239] | mice | ND (^ <4%) |
| CNC1CCc2sc(Cl)c(Cl)c2C1 (stereo not drawn) [Compound 220, hydrochloride] | mice | ND (^ <4%) |
| CNC1CCc2sc(Cl)cc2C1 (single isomer, unassigned) [Compound 151, hydrochloride] | mice | ND (^ <4%) |
| CNC1COc2c(C)csc2C1 (stereo not drawn) [Compound 247, hydrochloride] | mice | ND (^ <4%) |
| c1scc2c1CCC(NC1CCC1)C2 (single isomer, unassigned) [Compound 161, hydrochloride] | mice | ND (^ <4%) |

Data request: Query: PS; subject: NC1COc2c(C3CC3)csc2C1 (stereo not drawn) [Compound 229, hydrochloride]
Data returned: ND (^ <4%)

Data request: Same read-out for NC1CCc2scc(C(F)(F)F)c2C1 (single isomer, unassigned) [Compound 254, hydrochloride] ?
Data returned: ND (^ <4%)

Data request: Same read-out for CNC1CCc2scc(C3CCC3)c2C1 (single isomer, unassigned) [Compound 267, hydrochloride] ?
Data returned: ND (^ <4%)

Data request: Same read-out for CNC1CCc2scc(C3CCC3)c2C1 (stereo not drawn) [Compound 206, hydrochloride] ?
Data returned: ND (^ <4%)

Data request: Same read-out for CNC1COc2csc(C(F)(F)F)c2C1 (stereo not drawn) [Compound 153, hydrochloride] ?
Data returned: ND (^ <4%)

Data request: Same read-out for CNC1CCc2scc(C(F)(F)F)c2C1 (stereo not drawn) [Compound 140, hydrochloride] ?
Data returned: ND (^ <4%)

Data request: Same read-out for CNC1COc2c(C3CC3)csc2C1 (stereo not drawn) [Compound 235, hydrochloride] ?
Data returned: ND (^ <4%)

Data request: Same read-out for CC1(N)CCc2c(C(F)(F)F)csc2C1.Cl (single isomer, unassigned) [Compound 241] ?
Data returned: ND (^ <4%)

Data request: Same read-out for CNC1(C)CCc2cc(C(F)(F)F)sc2C1.Cl (single isomer, unassigned) [Compound 245] ?
Data returned: ND (^ <4%)

Data request: Same read-out for NC1COc2c(Cl)csc2C1 (stereo not drawn) [Compound 215, hydrochloride] ?
Data returned: ND (^ <4%)

Data request: Same read-out for NC1CCc2sccc2C1 (single isomer, unassigned) [Compound 212, hydrochloride] ?
Data returned: ND (^ <4%)

Data request: Same read-out for CNC1COc2csc(C(F)(F)F)c2C1 (single isomer, unassigned) [Compound 258, hydrochloride] ?
Data returned: ND (^ <4%)
